Test system: MCF7 breast
PROTOCOL DETAILS: NCI-60 one-dose screen, 48 h
RECORDED CONDITIONS: 10 µM
Compounds without any hit were thinned out: in the full panel of roughly 83,000, 20% have a hit. Active and inactive are the calls of the source. Rule for the calls: active = growth percent below 10; inactive = the rest.
Your reply should match one of these outcome classes. active, inactive

Below, 3 compounds whose answers are already recorded.
{"COMPOUND": "CN(C)N=Nc1nn(C(=O)Nc2ccc(Cc3ccccc3)cc2)c2ccccc12", "CAT": "inactive"}
{"COMPOUND": "O=[P@@]1(c2ccccc2)O[C@H](COCc2ccccc2)[C@@H](OCc2ccccc2)[C@H](OCc2ccccc2)[C@H]1O", "CAT": "inactive"}
{"COMPOUND": "CC/C(=C(/c1ccc(OCCN(C)C)cc1)c1ccc(OC(=O)CCCCC(=O)c2c(C)[nH]c(/C=C3\\N=C(c4ccc[nH]4)C=C3OC)c2C)cc1)c1ccccc1", "CAT": "active"}

Name the outcome recorded for Cc1cc(Nc2ccc(Cl)cc2)nc(NCCCNc2ccnc3cc(Cl)ccc23)n1 in the assay.
active

What did this assay record as the result for COc1ccc(C2=NN(C(=O)c3ccc(S(C)(=O)=O)cc3)C(c3ccc(OC)c(OC)c3)C2)c(OC)c1 (stereo not given) ?
inactive

----------
As shown below, each of these compounds has a reported growth value.
System: SK-MEL-28 melanoma
PROTOCOL DETAILS: NCI-60 one-dose screen, 48 h (100 = growth as untreated, 0 = no growth, -100 = all killed)
RECORDED CONDITIONS: 10 µM
This is part of a sample that, as a whole, favours compounds with a hit. Of some 83,000 tested, about 20% had one in any assay.
I only need the number, in %, no unit after it.

Sample COc1ccc(C2=Nc3c(C)nn(-c4ccccc4)c3NC(c3ccc(Oc4ccnc5cc(Cl)ccc45)c(OC)c3)C2)cc1 (stereo unspecified) — what was its growth?
95.1

----------
System: UACC-62 melanoma
PROTOCOL DETAILS: NCI-60 one-dose screen, 48 h
RECORDED CONDITIONS: 10 µM
The panel holds about 83,000 compounds, 20% with a hit somewhere; the sample as a whole holds those more often. Calls of active or inactive are those of the source. Rule for the calls: active = growth percent below 10; inactive = the rest.
Permitted responses: 1.0 = active, 0.0 = inactive

Look over these answered cases.
{"COMPOUND": "CC1=C(N2CCOCC2)C(N2CCOCC2)=C(C)C(=O)C1=O", "TESTED SYSTEM": "UACC-62 melanoma", "CAT": 0.0}
{"COMPOUND": "COc1ccc2c(c1)-c1c(c3cc(OC)ccc3n(CCN(C)C)c1=O)C2=O", "TESTED SYSTEM": "UACC-62 melanoma", "CAT": 0.0}
{"COMPOUND": "C=C(NC(=O)C(=C)NC(=O)c1csc(C2=NC3c4csc(n4)C4NC(=O)c5csc(n5)C(C(C)(O)C(C)O)NC(=O)C5CSC(=N5)/C(=C/C)NC(=O)C(C(C)O)NC(=O)c5csc(n5)C3(CC2)NC(=O)C(C)NC(=O)C(=C)NC(=O)C(=C)NC(=O)C(C(C)C)NC2C=Cc3c(C(C)O)cc(nc3C2O)C(=O)OC4C)n1)C(N)=O (centres undefined)", "TESTED SYSTEM": "UACC-62 melanoma", "CAT": 1.0}
{"COMPOUND": "C#Cc1ccc(-n2c(/C=C/c3ccc4ccccc4n3)nc3ncccc3c2=O)cc1", "TESTED SYSTEM": "UACC-62 melanoma", "CAT": 1.0}
{"COMPOUND": "Nc1c(C(=O)Nc2cccc3ccccc23)sc2nc3c(cc12)C(=O)CCC3", "TESTED SYSTEM": "UACC-62 melanoma", "CAT": 0.0}
{"COMPOUND": "COc1cc(/C=N/NC(=O)c2ccccc2Nc2cccc(C(F)(F)F)c2)cc(OC)c1OC", "TESTED SYSTEM": "UACC-62 melanoma", "CAT": 0.0}

Which outcome was assigned to NC1=NC(=O)C(c2ccccc2)(c2ccccc2)S1 in this test?
0.0

What did the test return for C=C(C(=O)c1ccccc1)C(NC(C)(C)C)c1ccccc1 (centres undefined) ?
1.0

For CN(C)CCS(=O)(=O)CCN(C)C , which call appears in the assay record?
0.0

----------
System: SNB-75 CNS
PROTOCOL DETAILS: NCI-60 one-dose screen, 48 h (100 = growth as untreated, 0 = no growth, -100 = all killed)
RECORDED CONDITIONS: 10 µM
This is part of a sample that, as a whole, favours compounds with a hit. Of some 83,000 tested, about 20% had one in any assay.
Could you please mark 1.0 for values of growth below 30% and 0.0 for values at or above it?

Would you please look over these solved cases?
{"MOLECULE": "O=C(Nc1cccc(-n2cc(-c3ccncc3)c(-c3cc(O)cc(Cl)c3)n2)c1)c1ccc(N2CCOCC2)c(C(F)(F)F)c1", "TESTED SYSTEM": "SNB-75 CNS", "CAT": 1.0}
{"MOLECULE": "COc1ccc2c(c1)[n+]([O-])c(C#N)c(NC(=O)c1ccco1)[n+]2[O-]", "TESTED SYSTEM": "SNB-75 CNS", "CAT": 0.0}
{"MOLECULE": "CCCCCCCCCCCCCCCCN(C(C)c1ccccc1)S(=O)(=O)c1ccc(OC)c(N)c1 (stereo unspecified)", "TESTED SYSTEM": "SNB-75 CNS", "CAT": 0.0}

Dear reviewer, please state whether Cc1nc2ccc(CN(C)c3ccc(C(=O)N[C@@H](CCC(=O)O)C(=O)O)s3)cc2c(=O)[nH]1 has growth strictly beneath 30%.
0.0

Problem: For the molecule CC(C)=NNc1ncnc2c1ncn2C1OC(CO)C(O)C1O (stereo unspecified) , is growth under 30%?
0.0

Field: below-cutoff. Rule: recorded growth strictly less than 30%. Subject: Clc1ccc(Nc2ccnc(NCCCNc3ccnc4cc(Cl)ccc34)n2)cc1
1.0

----------
Test system: CCRF-CEM leukemia
PROTOCOL DETAILS: NCI-60 one-dose screen, 48 h (100 = growth as untreated, 0 = no growth, -100 = all killed)
RECORDED CONDITIONS: 10 µM
This is part of a sample that, as a whole, favours compounds with a hit. Of some 83,000 tested, about 20% had one in any assay.
MEASUREMENT NAME: growth (%)
Give the number; % is assumed, so skip it.

Find the recorded growth belonging to O=C(Nc1cccc(Cl)c1)Nc1nccs1 and report it.
83.2

I'd like to know its growth. The compound in question is N#CCCN1C/C(=C/c2ccc(Br)cc2)C(=O)/C(=C/c2ccc(Br)cc2)C1
-5.67

----------
Tested on: UO-31 renal
PROTOCOL DETAILS: NCI-60 one-dose screen, 48 h (100 = growth as untreated, 0 = no growth, -100 = all killed)
RECORDED CONDITIONS: 10 µM
Protocol: Growth inhibition of the UO-31 human tumor cell line is measured as a screen for anti-cancer activity. Cells are grown in 96 well plates and exposed to the test compound for 48 hours. Compounds are tested at a single concentration, which is 10^-5 M for most compounds. The reported endpoint is percent growth (GI% or GIPRCNT), where numbers from 0 - 100% represent growth inhibition, and numbers from -100% - 0 represent cell death. For example, a value of 40 represents 60% growth inhibition. […]
The panel holds about 83,000 compounds, 20% with a hit somewhere; the sample as a whole holds those more often.
Outcome label depends on growth relative to 20%: at/above gives 1, below gives 0.

Solved cases below.
{"MOLECULE": "COc1ccc(C2CC(c3ccc(N(C)C)cc3)=NN2c2ccc(S(N)(=O)=O)cc2)cc1 (centres undefined)", "CAT": 1}
{"MOLECULE": "O=C1/C(=C/c2ccc([N+](=O)[O-])s2)Oc2ccccc21", "CAT": 0}
{"MOLECULE": "Clc1cc2c(c(CSc3nc4ccccc4n4cccc34)c1)OCOC2", "CAT": 1}
{"MOLECULE": "O=[N+]([O-])c1ccc(Oc2cccnc2)c([N+](=O)[O-])c1", "CAT": 1}
{"MOLECULE": "CCOC(=O)N1C/C(=C/c2ccc(OC)cc2)C(=O)/C(=C/c2ccc(OC)cc2)C1", "CAT": 0}

Check the entry COc1cc(CNc2ccccc2C(=O)N2CCN(C(=O)c3cc(-c4cc(OC)c(OC)c(OC)c4)n4nc(-c5ccccc5)cc4n3)CC2)cc(OC)c1OC : does growth equal or exceed 20%?
0

I'd appreciate it if you could say whether COc1ccc(-c2cc(/C=C/C(=O)c3cc(OC)c(OC)c(OC)c3)[nH]n2)cc1OC has growth at least equal to 20%.
0

Identify whether the reported growth of the following molecule is 20% or greater: Nc1nc(N=Nc2ccc(O)cc2)cc(=O)[nH]1
1

Threshold query (growth >= 20%) on c1ccc(CO[C@H]2CO[C@H]3[C@@H]2OC[C@H]3OCc2ccccc2)cc1
1
